Target: Fatty-acid amide hydrolase 1 (Rattus norvegicus, UniProt P97612)
Sequence (P97612 whole entry): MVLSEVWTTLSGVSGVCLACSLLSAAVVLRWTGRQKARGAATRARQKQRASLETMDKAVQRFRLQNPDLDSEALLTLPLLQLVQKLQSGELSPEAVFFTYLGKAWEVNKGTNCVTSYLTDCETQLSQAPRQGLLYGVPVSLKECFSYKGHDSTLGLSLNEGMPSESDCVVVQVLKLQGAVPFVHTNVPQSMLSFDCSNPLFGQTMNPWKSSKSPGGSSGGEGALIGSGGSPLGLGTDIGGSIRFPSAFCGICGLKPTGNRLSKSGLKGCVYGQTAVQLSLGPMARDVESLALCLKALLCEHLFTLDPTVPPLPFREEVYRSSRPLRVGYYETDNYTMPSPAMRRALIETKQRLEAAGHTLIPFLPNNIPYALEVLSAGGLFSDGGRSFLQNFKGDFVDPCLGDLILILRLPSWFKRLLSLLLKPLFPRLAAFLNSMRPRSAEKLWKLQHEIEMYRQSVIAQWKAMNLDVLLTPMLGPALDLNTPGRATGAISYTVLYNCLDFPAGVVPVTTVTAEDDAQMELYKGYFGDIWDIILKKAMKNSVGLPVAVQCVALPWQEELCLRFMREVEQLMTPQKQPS
Hi, quick share: literature IC50 data for Fatty-acid amide hydrolase 1 (Rattus norvegicus, UniProt P97612), several sources combined.
measuredMetric: IC50 (µM)

Please review the following examples before continuing.
O=C(CCCCCCc1ccccc1)c1nc(C(F)(F)F)co1 :: 0.4
O=C(NC1CCC(=Cc2cccc(Oc3ccc(C(F)(F)F)cn3)c2)CC1)c1cn[nH]c1 (racemic) :: 0.0646
CCn1c(=O)n(C2CCCN(c3nccc(-c4cc5ccccc5o4)n3)C2)c2ccccc21 (stereo not given) :: 0.06
O=C(CCCCCCCc1ccccc1)Nc1ccc(B(O)O)cc1 :: 0.39

P: O=C(Cc1ccc(B(O)O)cc1)NCCCCCCCc1ccccc1
Q: CC(=O)Nc1ccc(OC(=O)c2ccc(Nc3ccnc(C(F)(F)F)c3)c(C)c2)cc1
Q. Please compare: P and Q . Report which one has the smaller IC50 value. Answer by quoting the chosen item's label.
A. P
